SYSTEM_TESTED: Cloned human M1 receptor (CHRM1) (Homo sapiens, UniProt P11229)
Construct: expressed in transfected cells; host or cells: HEK293
Sequence (P11229 whole entry): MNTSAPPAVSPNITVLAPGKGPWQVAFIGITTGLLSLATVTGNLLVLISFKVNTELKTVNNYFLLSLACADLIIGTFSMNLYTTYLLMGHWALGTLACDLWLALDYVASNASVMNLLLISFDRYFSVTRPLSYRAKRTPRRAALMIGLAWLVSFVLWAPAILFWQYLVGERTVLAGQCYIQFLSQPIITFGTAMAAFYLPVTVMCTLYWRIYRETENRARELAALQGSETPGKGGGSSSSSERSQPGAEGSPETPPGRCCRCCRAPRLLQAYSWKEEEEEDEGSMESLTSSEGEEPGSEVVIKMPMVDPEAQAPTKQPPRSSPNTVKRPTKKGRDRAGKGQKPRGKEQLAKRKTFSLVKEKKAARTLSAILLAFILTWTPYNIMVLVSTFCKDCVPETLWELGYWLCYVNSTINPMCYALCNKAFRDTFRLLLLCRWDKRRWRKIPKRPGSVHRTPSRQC
MEASUREMENT_PROTOCOL: CHRM1 Ca++ Flux Assay (HEK293 M1 cells, agonist mode)
Format: cell-based
CONDITION_NOTES: Percent Activity (PA), read-out: M1 FDSS PA %
Attribute: Emax
Provide only the numeric value, understood in %.

Here are 3 molecules together with their reported answers.
compound_structure=Fc1ccc(OC2COC2)c(C2CCN([C@@H]3COC4(C3)CN(c3ncco3)C4)CC2)c1 observation_type=Emax uom=% data_value=84
compound_structure=Fc1ccc(O[C@H]2CCOC2)c(C2CCN([C@@H]3COC4(C3)CN(c3nnco3)C4)CC2)c1 observation_type=Emax uom=% data_value=87
compound_structure=Fc1ccc(OC2CCOCC2)c(C2CCN([C@@H]3COC4(C3)CN(c3ncon3)C4)CC2)c1 observation_type=Emax uom=% data_value=53

Exercise: Could you share which Emax value was measured for c1ccc(C2CCN([C@@H]3COC4(C3)CN(c3ncco3)C4)CC2)c(O[C@@H]2CCOC2)c1 ?
Solution: 90

Exercise: Could you share which Emax value was measured for Cc1nnc(COc2ccc(F)cc2C2CCN([C@@H]3COC4(C3)CN(c3nnco3)C4)CC2)s1 ?
Solution: 112

Exercise: Could you share which Emax value was measured for Fc1ccc(OC2COC2)c(C2CCN([C@@H]3COC4(C3)CN(c3ncon3)C4)CC2)c1 ?
Solution: 88

Exercise: Could you share which Emax value was measured for COc1ccc(F)cc1C1CCN([C@@H]2COC3(C2)CN(c2nnco2)C3)CC1 ?
Solution: 76

Exercise: Could you share which Emax value was measured for Fc1cc(OC2CCOCC2)c(C2CCN([C@@H]3COC4(C3)CN(c3nnco3)C4)CC2)cc1F ?
Solution: 64

Exercise: Could you share which Emax value was measured for Fc1ccc(OC2CCOCC2)c(C2CCN([C@@H]3COC4(C3)CN(c3nncs3)C4)CC2)c1 ?
Solution: 6

Exercise: Could you share which Emax value was measured for Fc1ccc(O[C@H]2CCOC2)c(C2CCN([C@@H]3COC4(C3)CN(c3nncs3)C4)CC2)c1 ?
Solution: 78

Ref: patent US11485742B2
